- PROCEDURE DETAILS: method code SF-AQ, from DOI: 10.1016/0003-9861(68)90547-x, PMID: 5677592
MEASURED ENDPOINT: logP
// response body must contain only the number

[in] // logP lookup, key: `OC[C@H]1O[C@@H](Oc2ccc(Cl)cc2)[C@H](O)[C@@H](O)[C@@H]1O`
[out] 0.26

====

- PROCEDURE DETAILS: method code SF-CR+AS, from DOI: 10.1016/0003-9861(68)90547-x, PMID: 5677592
MEASURED ENDPOINT: logP
// response body must contain only the number

[in] // logP lookup, key: OC[C@H]1OC(OCc2ccccc2)[C@H](O)[C@@H](O)[C@@H]1O (stereo not given in full)
[out] -0.7

[in] // logP lookup, key: `CCc1cccc(O[C@@H]2O[C@H](CO)[C@@H](O)[C@H](O)[C@H]2O)c1`
[out] 0.31

[in] // logP lookup, key: `OC[C@H]1O[C@@H](OC2CCCCC2)[C@H](O)[C@@H](O)[C@@H]1O`
[out] -0.63

[in] // logP lookup, key: `Cc1ccc(O[C@@H]2O[C@H](CO)[C@@H](O)[C@H](O)[C@H]2O)cc1`
[out] -0.16

[in] // logP lookup, key: `OC[C@H]1O[C@@H](Oc2ccccc2I)[C@H](O)[C@@H](O)[C@@H]1O`
[out] 0.27
